read-out: E-selectin (Homo sapiens); test: BSK_SAg_Eselectin: BioMAP Diversity Plus: SAg Assay for Eselectin Biomarker Activity (AID 2283091); conditions: primary human HUVEC with PBMC; actives raise or lower the signal
Calls of active or inactive are those of the source. Rule for the calls: active = hit-call score of the fitted dose curve at least 0.9, where 1 is the maximum; inactive = score below 0.9.
Outcome codes: active, inactive

[
  {
    "compound": "Cc1cc(C2CC2)nc(Nc2ccccc2)n1",
    "discreteLabel": "active"
  },
  {
    "compound": "CCOP(=O)(SC(C)CC)N1CCSC1=O (stereo not drawn)",
    "discreteLabel": "inactive"
  },
  {
    "compound": "COP(=O)(OC)OC(Br)C(Cl)(Cl)Br (stereo not drawn)",
    "discreteLabel": "active"
  },
  {
    "compound": "CCCSP(=O)(OCC)SCCC",
    "discreteLabel": "inactive"
  },
  {
    "compound": "CC(COc1ccc(Oc2ccccc2)cc1)Oc1ccccn1 (stereo not drawn)",
    "discreteLabel": "inactive"
  },
  {
    "compound": "CN(C)NC(=O)CCC(=O)O",
    "discreteLabel": "inactive"
  },
  {
    "compound": "O=c1ccc(=O)[nH][nH]1",
    "discreteLabel": "inactive"
  },
  {
    "compound": "CCNc1nc(Cl)nc(NC(C)(C)C#N)n1",
    "discreteLabel": "active"
  }
]

* * *

read-out: CD40, CD40 (gene 958); test: BSK_SAg_CD40: BioMAP Diversity Plus: SAg Assay for CD40 Biomarker Activity (AID 2283088); settings: primary human HUVEC with PBMC; actives raise or lower the signal
The source made the active and inactive calls. The calls were made as follows: active = hit-call score of the fitted dose curve at least 0.9, where 1 is the maximum; inactive = score below 0.9.

[
  {
    "compound": "CN1COCN(Cc2cnc(Cl)s2)C1=N[N+](=O)[O-]",
    "AC50": "3.79 µM (active)"
  },
  {
    "compound": "O=c1ccc(=O)[nH][nH]1",
    "AC50": "inactive"
  },
  {
    "compound": "CCc1cccc(C)c1N(C(=O)CCl)C(C)COC (stereo not given)",
    "AC50": "inactive"
  },
  {
    "compound": "COP(=O)(OC)C(O)C(Cl)(Cl)Cl (stereo not given)",
    "AC50": "inactive"
  },
  {
    "compound": "CCc1cnc(C2=NC(C)(C(C)C)C(=O)N2)c(C(=O)O)c1 (stereo not given)",
    "AC50": "inactive"
  },
  {
    "compound": "CCCCN(CC)c1c([N+](=O)[O-])cc(C(F)(F)F)cc1[N+](=O)[O-]",
    "AC50": "29.1 µM (active)"
  },
  {
    "compound": "C=C(C)[C@H]1Cc2c(ccc3c2O[C@@H]2COc4cc(OC)c(OC)cc4[C@@H]2C3=O)O1",
    "AC50": "7.75 µM (active)"
  },
  {
    "compound": "CC(C)[C@H](C(=O)O[C@H](C#N)c1cccc(Oc2ccccc2)c1)c1ccc(Cl)cc1",
    "AC50": "inactive"
  },
  {
    "compound": "CCOP(=S)(OCC)Oc1cc(C)nc(C(C)C)n1",
    "AC50": "inactive"
  },
  {
    "compound": "CSc1nnc(C(C)(C)C)c(=O)n1N",
    "AC50": "inactive"
  },
  {
    "compound": "CC(Oc1cccc(Cl)c1)C(=O)O (stereo not given)",
    "AC50": "inactive"
  },
  {
    "compound": "CC(=NC#N)N(C)Cc1ccc(Cl)nc1",
    "AC50": "inactive"
  },
  {
    "compound": "CCC(CC)Nc1c([N+](=O)[O-])cc(C)c(C)c1[N+](=O)[O-]",
    "AC50": "20 µM (active)"
  },
  {
    "compound": "Nc1c(Cl)cc([N+](=O)[O-])cc1Cl",
    "AC50": "inactive"
  },
  {
    "compound": "CCCCOC(=O)[C@@H](C)Oc1ccc(Oc2ccc(C#N)cc2F)cc1",
    "AC50": "inactive"
  },
  {
    "compound": "C[Si](Cn1cncn1)(c1ccc(F)cc1)c1ccc(F)cc1",
    "AC50": "27 µM (active)"
  },
  {
    "compound": "CSC1=N[C@@](C)(c2ccccc2)C(=O)N1Nc1ccccc1",
    "AC50": "11.4 µM (active)"
  },
  {
    "compound": "CCC(=NOC/C=C/Cl)C1=C(O)CC(C2CCOCC2)CC1=O (stereo not given)",
    "AC50": "inactive"
  },
  {
    "compound": "COP(=O)(OC)OC(Br)C(Cl)(Cl)Br (stereo not given)",
    "AC50": "30.2 µM (active)"
  },
  {
    "compound": "CN(C)C(=O)Nc1cccc(C(F)(F)F)c1",
    "AC50": "inactive"
  },
  {
    "compound": "COc1ccc(C(=CC(=O)N2CCOCC2)c2ccc(Cl)cc2)cc1OC",
    "AC50": "6.93 µM (active)"
  },
  {
    "compound": "CNc1cnn(-c2cccc(C(F)(F)F)c2)c(=O)c1Cl",
    "AC50": "11.7 µM (active)"
  },
  {
    "compound": "Cc1cc(C2CC2)nc(Nc2ccccc2)n1",
    "AC50": "16.2 µM (active)"
  },
  {
    "compound": "CCOC(=O)CC(SP(=O)(OC)OC)C(=O)OCC (stereo not given)",
    "AC50": "inactive"
  },
  {
    "compound": "Cc1nn(-c2cc(NS(C)(=O)=O)c(Cl)cc2Cl)c(=O)n1C(F)F",
    "AC50": "inactive"
  },
  {
    "compound": "CCCOCC(=Nc1ccc(Cl)cc1C(F)(F)F)n1ccnc1",
    "AC50": "18.1 µM (active)"
  },
  {
    "compound": "CC(COc1ccc(Oc2ccccc2)cc1)Oc1ccccn1 (stereo not given)",
    "AC50": "inactive"
  },
  {
    "compound": "CCOP(=O)(SC(C)CC)N1CCSC1=O (stereo not given)",
    "AC50": "inactive"
  },
  {
    "compound": "CN(C)NC(=O)CCC(=O)O",
    "AC50": "inactive"
  },
  {
    "compound": "CNC(=O)Oc1cccc2c1OC(C)(C)O2",
    "AC50": "inactive"
  },
  {
    "compound": "C#CCC1=C(C)C(OC(=O)C2C(C=C(C)C)C2(C)C)CC1=O (stereo not given)",
    "AC50": "26.5 µM (active)"
  },
  {
    "compound": "C#CC(C)(C)NC(=O)c1cc(Cl)cc(Cl)c1",
    "AC50": "inactive"
  },
  {
    "compound": "CNC(=O)ON=C(C)SC",
    "AC50": "inactive"
  },
  {
    "compound": "CCOP(=O)(OCC)Oc1cc(C)nc(C(C)C)n1",
    "AC50": "inactive"
  },
  {
    "compound": "CCOP(=O)(NC(C)C)Oc1ccc(SC)c(C)c1 (stereo not given)",
    "AC50": "inactive"
  }
]
